Test system: T47D
Experiment: Antiproliferative activity against human T47D cells after 48 hrs by SRB assay
Type: functional
# GI50 per record follows
Lab book: enter the figure in µM, no units written.

Completed entries (count: 3):
{"RECORD_SMILES": "CC(C)(C)[Si](OC[C@H]1O[C@H](O[C@@H]2OC=C[C@H]3[C@H](O)[C@@H]4O[C@]4(CO[Si](c4ccccc4)(c4ccccc4)C(C)(C)C)[C@@H]23)[C@H](O)[C@@H](O)[C@@H]1O)(c1ccccc1)c1ccccc1", "GI50 (µM)": 4.1}
{"RECORD_SMILES": "CC(C)(C)[Si](OC[C@H]1O[C@H](O[C@@H]2OC=C[C@H]3[C@H](O[Si](c4ccccc4)(c4ccccc4)C(C)(C)C)[C@@H]4O[C@]4(CO[Si](c4ccccc4)(c4ccccc4)C(C)(C)C)[C@@H]23)[C@H](O)[C@@H](O)[C@@H]1O)(c1ccccc1)c1ccccc1", "GI50 (µM)": 2.7}
{"RECORD_SMILES": "CC(C)(C)[Si](C)(C)OC[C@]12O[C@H]1[C@@H](O)[C@@H]1C=CO[C@@H](O[C@H]3O[C@H](CO)[C@@H](O)[C@H](O)[C@H]3O)[C@@H]12", "GI50 (µM)": 87}

Shifting focus to the molecule that follows.
Answer with the recorded GI50 for the molecule listed here: CC(C)(C)[Si](C)(C)OC[C@H]1O[C@H](O[C@@H]2OC=C[C@H]3[C@H](O)[C@@H]4O[C@]4(CO[Si](C)(C)C(C)(C)C)[C@@H]23)[C@H](O)[C@@H](O)[C@@H]1O 3.6

* * *

Test system: SW1573
Assay: Antiproliferative activity against human SW1573 cells after 48 hrs by SRB assay
Type: functional
Conditions: SW1573, 48 h
# GI50 per record follows
Lab book: enter the figure in µM, no units written.

Completed entries (count: 3):
{"RECORD_SMILES": "CC(C)(C)[Si](C)(C)OC[C@H]1O[C@H](O[C@@H]2OC=C[C@H]3[C@H](O)[C@@H]4O[C@]4(CO[Si](C)(C)C(C)(C)C)[C@@H]23)[C@H](O)[C@@H](O)[C@@H]1O", "MEASURED_RESULT": 4.8}
{"RECORD_SMILES": "CC(C)(C)[Si](OC[C@H]1O[C@H](O[C@@H]2OC=C[C@H]3[C@H](O)[C@@H]4O[C@]4(CO[Si](c4ccccc4)(c4ccccc4)C(C)(C)C)[C@@H]23)[C@H](O)[C@@H](O)[C@@H]1O)(c1ccccc1)c1ccccc1", "MEASURED_RESULT": 2.7}
{"RECORD_SMILES": "CC(C)(C)[Si](OC[C@H]1O[C@H](O[C@@H]2OC=C[C@H]3[C@H](O[Si](c4ccccc4)(c4ccccc4)C(C)(C)C)[C@@H]4O[C@]4(CO[Si](c4ccccc4)(c4ccccc4)C(C)(C)C)[C@@H]23)[C@H](O)[C@@H](O)[C@@H]1O)(c1ccccc1)c1ccccc1", "MEASURED_RESULT": 1.8}

Shifting focus to the compound that follows.
Write GI50 of CC(C)(C)[Si](C)(C)OC[C@]12O[C@H]1[C@@H](O)[C@@H]1C=CO[C@@H](O[C@H]3O[C@H](CO)[C@@H](O)[C@H](O)[C@H]3O)[C@@H]12 ; system used: SW1573 88
